folding stability dG unfold values, listed per item
assay: folding stability dG unfold from chymotrypsin proteolysis; higher = more stable
Please answer in the form of a number followed by its unit of measurement.

# count of solved cases: 3
Prompt: GET /values?readout=folding stability dG unfold&item= SAGGSAMPRSSVSIVSVERAPDGTVTIPTKTTLTTPDGTVTTEESTVTLEVPPGRELSEEEIKKLLSAGGSA [r15_836_JUSTAS]
Response: 0.983 kcal/mol

Prompt: GET /values?readout=folding stability dG unfold&item= SAGGSAGGSMTIDGNALYEELGKDLPDEEKRKLFEEKAEEIAKKLGIPNMKVNINIKKPNEIKSAGGSAGGS [r12_666_JUSTAS]
Response: 0.135 kcal/mol

Prompt: GET /values?readout=folding stability dG unfold&item= SAGGSAGGSAGGKVEIYENPSTPYLVVVVYNPETGEKTVVLFKPDNPELAEKVAKELASSAGGSAGGSAGGS [r10_1117_TrMRF]
Response: 1.81 kcal/mol

Consider now this further sequence.
Prompt: GET /values?readout=folding stability dG unfold&item= SAGGSAKIKIPKSYTAEILDASYDPETKTVTVKIKLFGKPATATIYPDGTVEIDLPNGKKITIPVGSAGGSA [r15_111_TrMRF]
Response: 2.62 kcal/mol

Origin of the recorded values: the supplement of paper PMC12764529
